Measured nuclei count, listed per entry for reference.
test: endothelial E-selectin expression blockers – imaging, HUVEC, immunofluorescence, MLSMR starter and 10KST1 sets, primary screen (AID 487); settings: HUVEC TNFalpha-induced E-selectin immunofluorescence imaging, at 2 µM; measured here: cell number, toxicity;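 further: 100% = median nuclei count of all wells on the same plate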

structure.smiles: O=C(CN1C(=O)CSC1=O)Nc1ccc(N2CCOCC2)cc1
nuclei count [%]: 113
--
structure.smiles: Cc1cc2c(=O)n(Cc3ccco3)c(SCC(=O)NCc3ccco3)nc2s1
nuclei count [%]: 82.5
--
structure.smiles: c1nc(NCC2(N3CCOCC3)CCCCC2)c2ccsc2n1
nuclei count [%]: 87.7
--
structure.smiles: COc1ccc(C/C(O)=C(\C#N)c2nc3ccccc3s2)cc1
nuclei count [%]: 111
--
structure.smiles: CCCCOc1cccc(NC(=O)CSc2nccn2C)c1
nuclei count [%]: 108
--
structure.smiles: Cc1cccc(NC(=O)CC2CCC2)c1
nuclei count [%]: 71.8
--
structure.smiles: Cn1c(-c2ccccc2)cnc1SCc1nc2ccccc2c(=O)[nH]1
nuclei count [%]: 109
--
structure.smiles: Cc1nnc(SC(=O)N2c3ccccc3Sc3ccccc32)s1
nuclei count [%]: 107
--
structure.smiles: CCOC(=O)C1=C(c2ccccc2)N2CCS(=O)(=O)N=C2S1
nuclei count [%]: 108
--
structure.smiles: Cc1cc(C)nc(N2CCC(C(=O)Nc3ccc(Oc4ccccc4)cc3)CC2)n1
nuclei count [%]: 116
--
structure.smiles: CNC(=O)CSc1nnc(-c2cc(C)cc(C)c2)o1
nuclei count [%]: 124
--
structure.smiles: CCOc1ccccc1C(=O)NCCCn1ccnc1
nuclei count [%]: 121

----------
test: reduction of polyQ htt aggregates in cells – imaging, exon1htt(103Q)mCFP cells, high-content imaging, primary screen (AID 483); conditions: exon1htt(103Q)mCFP cell line, aggregate imaging, at 2 µM; stronger effect = higher value;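 further: compound exposure lasted 3 days before fixation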
The entries below are paired with their reported inhibition of aggregation.

compound: Cc1cc(C)c2c(n1)nn1c(N3CCN(c4ccccc4C)CC3)cc(C)nc21
inhibition of aggregation, %: -116
//
compound: CCOc1ccc2c(O)csc2c1
inhibition of aggregation, %: 7.4
//
compound: CSc1nc2ccc(S(=O)(=O)N3CCOCC3)cc2s1
inhibition of aggregation, %: 28.3
//
compound: CCC(C)(C)n1nnnc1C(c1ccc(OC)c(OC)c1)N1CCN(c2ccccc2)CC1 (centres undefined)
inhibition of aggregation, %: 0.9
//
compound: CCCNC(=O)Nc1ccccc1C(=O)Nc1ccc(OC)cc1
inhibition of aggregation, %: -15.5
//
compound: CCOc1ccccc1OCCn1nnc2ccccc21
inhibition of aggregation, %: -1.3
//
compound: Cc1c(C)c2ccc(OC3CCCCC3=O)cc2oc1=O (centres undefined)
inhibition of aggregation, %: -0.8
//
compound: COc1ccc(-c2nc(CCNC(=O)c3ccco3)cs2)cc1OC
inhibition of aggregation, %: -8.9
//
compound: O=S(=O)(NCc1ccccn1)c1ccc2c(c1)OCCO2
inhibition of aggregation, %: -27.1
//
compound: O=C1NCC(COCc2ccccc2)O1 (centres undefined)
inhibition of aggregation, %: 21
//
compound: c1ccc(-c2nc3cnccn3c2Nc2ccc3c(c2)OCCO3)cc1
inhibition of aggregation, %: 11.9
//
compound: O=C(NCc1nnc(SCC(=O)N2CCCCCC2)o1)c1ccco1
inhibition of aggregation, %: 12.1
//
compound: COC1CCCCC1NS(=O)(=O)c1ccccc1 (centres undefined)
inhibition of aggregation, %: 12.2
//
compound: COc1ccc(-c2noc(-c3ccccc3C(=O)Nc3cccnc3)n2)cc1
inhibition of aggregation, %: 0.1
//
compound: COC(=O)c1[nH]c2cc(OC)ccc2c1NC(=O)CN1CCOCC1
inhibition of aggregation, %: -17.1
//
compound: Nc1cc(C(=O)O)ccc1Nc1ccc(F)c(F)c1
inhibition of aggregation, %: -0.6
//
compound: CC(=O)Nc1cc(NC(C)=O)cc(C(=O)OCC(=O)N2CC(C)OC(C)C2)c1 (centres undefined)
inhibition of aggregation, %: 22.1
//
compound: CCN1CCN(c2nc3c(c(=O)n(C)c(=O)n3C)n2Cc2cccc3ccccc23)CC1
inhibition of aggregation, %: 14.8
//
compound: COc1ccccc1-n1nnnc1SCc1cc2c(cc1Br)OCO2
inhibition of aggregation, %: -1.1
//
compound: N#C/C(C(=O)c1ccccc1)=C1/CCCN1
inhibition of aggregation, %: -10.6
//
compound: CCOC(=O)c1ccc2[nH]c3c(c2c1)CCCCC3=O
inhibition of aggregation, %: -12.9
//
compound: CCCn1cnc2c(c1=O)c1nc3ccccc3nc1n2Cc1ccccc1OC
inhibition of aggregation, %: 4.9
//
compound: O=C(C1CC2CCC1C2)N1CCN(Cc2ccc3c(c2)OCO3)CC1 (centres undefined)
inhibition of aggregation, %: 17.4
//
compound: FC(F)(F)c1nnc2ccc(NCn3nnc4ccccc43)nn12
inhibition of aggregation, %: 18.9
